target: Adenosine receptor A1 (Rattus norvegicus); assay: Displacement of [3H]CCPA from adenosine A1 receptor in rat brain cortical membrane; assay type: cell membranes
Sequence (P25099 whole entry): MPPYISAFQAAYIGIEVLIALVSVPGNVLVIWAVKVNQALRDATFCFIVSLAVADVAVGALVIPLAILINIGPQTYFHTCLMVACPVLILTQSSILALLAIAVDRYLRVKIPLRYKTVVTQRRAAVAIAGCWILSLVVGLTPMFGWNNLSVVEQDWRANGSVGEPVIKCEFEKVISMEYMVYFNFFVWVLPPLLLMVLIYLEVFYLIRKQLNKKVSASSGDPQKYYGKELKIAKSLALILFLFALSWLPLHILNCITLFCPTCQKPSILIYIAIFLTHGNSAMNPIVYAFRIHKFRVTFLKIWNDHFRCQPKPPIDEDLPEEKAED
attribute_measured: Ki (µM)

For orientation, consider the following solved cases.
[[record]]
molecule = "Cn1c(=O)c2c(nc3n2CCCCN3CC2CCCCC2)n(C)c1=O"
attribute_measured = "Ki"
recorded_measurement = 5.18

[[record]]
molecule = "Cn1c(=O)c2c(nc3n2CCN3C2CCCC2)n(C)c1=O"
attribute_measured = "Ki"
recorded_measurement = 25

[[record]]
molecule = "CC(=O)OC1CCC(N2CCCCn3c2nc2c3c(=O)n(C)c(=O)n2C)CC1 (mixture of isomers)"
attribute_measured = "Ki"
recorded_measurement = 4.87


a: Cn1c(=O)c2c(nc3n2CCCN3CCC2=CCCCC2)n(C)c1=O
b: Cn1c(=O)c2c(nc3n2CCCCN3CCC2=CCCCC2)n(C)c1=O
Quick check, higher Ki between a and b ? Returns: label corresponding to the selected item.
a

P: C[C@@H](C1CCCCC1)N1CCCn2c1nc1c2c(=O)n(C)c(=O)n1C
Q: Cn1c(=O)c2c(nc3n2CCCCN3C2CCCCC2)n(C)c1=O
Quick check, higher Ki between P and Q ? Returns: label corresponding to the selected item.
P

====

target: Adenosine receptor A1 (Rattus norvegicus) (UniProt P25099); test: Displacement of [3H]CCPA from adenosine A1 receptor in rat brain cortical membrane at 25 uM; type: cell membranes
attribute_measured: inhibition (%)

For orientation, consider the following solved cases.
[[record]]
compound = "CC1CCC(N2CCCn3c2nc2c3c(=O)n(C)c(=O)n2C)CC1 (mixture of isomers)"
attribute_measured = "inhibition"
recorded_measurement = 38

[[record]]
compound = "Cn1c(=O)c2c(nc3n2CCCN3C2CCCCC2)n(C)c1=O"
attribute_measured = "inhibition"
recorded_measurement = 39

[[record]]
compound = "CC1CCCCC1N1CCCCn2c1nc1c2c(=O)n(C)c(=O)n1C (mixture of isomers)"
attribute_measured = "inhibition"
recorded_measurement = 27

[[record]]
compound = "CC1CCCCC1N1CCCn2c1nc1c2c(=O)n(C)c(=O)n1C (mixture of isomers)"
attribute_measured = "inhibition"
recorded_measurement = 31


I: Cn1c(=O)c2c(nc3n2CCCCN3C2CCCCCCC2)n(C)c1=O
II: Cn1c(=O)c2c(nc3n2CCCN3C2CCCCCCC2)n(C)c1=O
III: Cn1c(=O)c2c(nc3n2CCCN3C2CCCCCC2)n(C)c1=O
IV: Cn1c(=O)c2c(nc3n2CCCN3C23CC4CC(CC(C4)C2)C3)n(C)c1=O
Rank ascending by inhibition. Hello, could you send the labels back in the order asked? Thank you.
III, IV, I, II

====

target: Adenosine receptor A1 (Homo sapiens) (UniProt P30542); experiment: Displacement of [3H]CCPA from human recombinant adenosine A1 receptor expressed in CHO cells at 10 uM; assay type: cell-based
Sequence (P30542 whole entry): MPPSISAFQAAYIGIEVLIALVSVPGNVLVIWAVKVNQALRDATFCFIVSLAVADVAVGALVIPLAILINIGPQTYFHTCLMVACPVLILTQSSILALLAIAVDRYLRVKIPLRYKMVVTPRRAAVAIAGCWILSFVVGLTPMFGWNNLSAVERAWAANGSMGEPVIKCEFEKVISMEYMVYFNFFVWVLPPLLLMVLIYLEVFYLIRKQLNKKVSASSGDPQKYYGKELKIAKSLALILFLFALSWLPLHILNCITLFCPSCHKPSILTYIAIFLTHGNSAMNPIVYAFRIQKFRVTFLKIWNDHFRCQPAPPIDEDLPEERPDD
attribute_measured: inhibition (%)

For orientation, consider the following solved cases.
[[record]]
compound = "Cn1c(=O)c2c(nc3n2CCN3C2CCC(O)CC2)n(C)c1=O (mixture of isomers)"
attribute_measured = "inhibition"
unit_spec = "%"
recorded_measurement = 7

[[record]]
compound = "Cn1c(=O)c2c(nc3n2CCCN3C2CCCCCCC2)n(C)c1=O"
attribute_measured = "inhibition"
unit_spec = "%"
recorded_measurement = 17

[[record]]
compound = "CC(=O)OC1CCC(N2CCCCn3c2nc2c3c(=O)n(C)c(=O)n2C)CC1 (mixture of isomers)"
attribute_measured = "inhibition"
unit_spec = "%"
recorded_measurement = 16

[[record]]
compound = "Cn1c(=O)c2c(nc3n2CCCN3C2CCCCCC2)n(C)c1=O"
attribute_measured = "inhibition"
unit_spec = "%"
recorded_measurement = 41

[[record]]
compound = "CC1CCC(N2CCCn3c2nc2c3c(=O)n(C)c(=O)n2C)CC1 (mixture of isomers)"
attribute_measured = "inhibition"
unit_spec = "%"
recorded_measurement = 28

[[record]]
compound = "Cn1c(=O)c2c(nc3n2CCCN3C23CC4CC(CC(C4)C2)C3)n(C)c1=O"
attribute_measured = "inhibition"
unit_spec = "%"
recorded_measurement = 15


P: Cn1c(=O)c2c(nc3n2CCN3C2CCCCC2)n(C)c1=O
Q: Cn1c(=O)c2c(nc3n2CCN3C2CCCCCCC2)n(C)c1=O
Sorting ascending by inhibition, which comes first: P or Q ? Returns: label corresponding to the selected item.
Q
